Hey, just so you know, these numbers are from PubChem BioAssay (NCI).

Test system: HT29 colon
Assay: NCI tumour cell line growth inhibition, 48 h
observed property: TGI

Before answering, review these 6 worked examples.
molecule=O=C(O)CN1CCN(CC(=O)N2CCN(C(=O)OCc3ccccc3)CC2)CCN(CC(=O)O)CCN(CC(=O)N2CCN(C(=O)OCc3ccccc3)CC2)CC1 subject_of_test="HT29 colon" test_result="> 100 µM"
molecule="CC1(S)CC2C(CC1Sc1ccccc1)C2(C)C (configuration not stated)" subject_of_test="HT29 colon" test_result="> 100 µM"
molecule=O/N=C(\CC(O)(C(F)(F)F)C(F)(F)F)c1cccc(Cl)c1 subject_of_test="HT29 colon" test_result="> 100 µM"
molecule=C/C(=N\NC(=S)N1CCCCCCCCCCCC1)c1ccccn1 subject_of_test="HT29 colon" test_result="1.04 µM"
molecule="CC(C)(C)OC(=O)C1=C2C=C(O)C=CC2(C)N(Cc2ccccc2)C1=N (configuration not stated)" subject_of_test="HT29 colon" test_result="14 µM"
molecule="Fc1cccc(Cl)c1C1SCc2nc3cc4ccccc4cc3n21 (configuration not stated)" subject_of_test="HT29 colon" test_result="> 100 µM"

Pending molecule:
Bench note: what TGI did O=C(CC(=O)N1N=C(N(c2ccccc2)c2ccccc2)CC1c1ccccc1)Nc1ccc(Cl)cc1 (configuration not stated) show?
> 100 µM

----------
System: SNB-19 CNS
Test: NCI tumour cell line growth inhibition, 48 h
observed property: TGI

Solved entries (count: 7):
compound=C/C(=N\N=C(\[Se])N(C)C)c1ccccn1 observed_property=TGI test_result="15.9 µM"
compound=COC(=O)N/N=C(/CCC(=O)Nc1ccc(C)c(C)c1)CC(=O)C(C)(C)C observed_property=TGI test_result="> 100 µM"
compound=O=C1C(=O)c2ccccc2C(O)=C1CCCc1ccc(C2CCCCCC2)cc1 observed_property=TGI test_result="> 100 µM"
compound=CCCCOCc1cc(CN2CCN(C)CC2)c(O)c2ncccc12 observed_property=TGI test_result="> 100 µM"
compound="C[C@]12CC[C@H]3[C@@H](C[C@@H]4SC(Nc5ccccc5)=N[C@@]45CC(O)CC[C@]35C)[C@@H]1CCC2O (stereo partly drawn)" observed_property=TGI test_result="3.77 µM"
compound=O=c1c(NO)c([N+](=O)[O-])cnn1-c1ccccc1 observed_property=TGI test_result="26.1 µM"
compound="O=C1NC(=O)/C(=C/c2ccc(S(=O)(=O)N/N=C\\C(O)C(O)C(O)C(O)CO)cc2)N1 (stereo not drawn)" observed_property=TGI test_result="> 100 µM"

Please look at the following compound next.
May I ask what TGI has been recorded for O=S(=O)(c1ccccc1)n1cc(C[P+](c2ccccc2)(c2ccccc2)c2ccccc2)c2ccccc21 ?
6.77 µM

----------
Tested on: NCI/ADR-RES ovarian
Assay: NCI tumour cell line growth inhibition, 48 h; in the data active = GI50 below about 0.43 µM; inactive = the rest
Log the outcome using a class from yes (1) for active, no (0) for inactive

Worked cases, answers included:
compound=CCOC(=O)c1c(C)nc2c(c1N)CC(=O)N2CCc1ccccc1 subject_of_test="NCI/ADR-RES ovarian" label="no (0)"
compound=COc1ccc2c(Cl)cc(NC(=O)Nc3c(C)cccc3C)nc2c1 subject_of_test="NCI/ADR-RES ovarian" label="no (0)"
compound=OCCNCCCOc1ccc2ncnc(Nc3ccc(Oc4cccc(C(F)(F)F)c4)c(Cl)c3)c2c1 subject_of_test="NCI/ADR-RES ovarian" label="no (0)"
compound="Cc1[nH]c(-c2nc3ccccc3[nH]2)c(C)c1C(=O)NC(C)C1CCCCC1 (stereo not drawn)" subject_of_test="NCI/ADR-RES ovarian" label="no (0)"
compound=Cc1cc(N2CCCC2)nc(NCc2cc(Nc3ccnc4cc(Cl)ccc34)ccc2F)n1 subject_of_test="NCI/ADR-RES ovarian" label="no (0)"

Next compound, please.
Could you kindly confirm the outcome this assay logged for COC(=O)/C=C1/SC(N2N=C(c3cccs3)CC2c2ccc(F)cc2)=NC1=O (stereo not drawn) ?
no (0)
